conditions: in acetonitrile, 295.65 K

{"columns": ["Smiles text", "solubility (mole fraction)"],
 "data": [
  ["Clc1ccc2c(c1)Nc1ccccc1S2", 0.00498]
]}

----------
settings: in 2-butanone, 305.65 K

{"columns": ["Smiles text", "solubility (mole fraction)"],
 "data": [
  ["Clc1ccc2c(c1)Nc1ccccc1S2", 0.0578]
]}

----------
settings: in isopropanol, 293.15 K
Value type: solubility (mole fraction)

{"columns": ["Smiles text", "Value type", "Result"],
 "data": [
  ["Clc1ccc2c(c1)Nc1ccccc1S2", "solubility (mole fraction)", 0.00454]
]}

----------
settings: in isopropanol, 310.65 K

{"columns": ["Smiles text", "solubility (mole fraction)"],
 "data": [
  ["Clc1ccc2c(c1)Nc1ccccc1S2", 0.00605]
]}
